test system: MKL-1; test: qHTS assay to identify novel small-molecules to repurpose for Merkel cell carcinoma treatment (AID 1296009); conditions: MCC and control cell lines, CellTiter-Glo viability, 72 h; series mostly up to 46 µM; note: nearly all actives have a fitted effect of over 60% in size; note: potency is the fitted concentration of half-maximal effect
Results filed as inconclusive are left out. Calls of active or inactive are those of the source. Calls come from the whole dose curve; as a rule, active = well fitted inhibition curve with a large enough effect; inconclusive = small, poorly fitted or top-dose-only effect; inactive = flat fitted curve, though single readings scatter.
observationType: Potency

- compound: "CCCc1nc2c(C)cc(-c3nc4ccccc4n3C)cc2n1Cc1ccc(-c2ccccc2C(=O)O)cc1"
  assayValue: "inactive"
- compound: "Cc1ccccc1C(C(=O)NC1CCCC1)N(C(=O)Cn1cnc2ccccc21)c1cccc(F)c1 (centres undefined)"
  assayValue: "inactive"
- compound: "CCN(CC)CCCC(C)Nc1ccnc2cc(Cl)ccc12 (centres undefined)"
  assayValue: "inactive"
- compound: "Cc1cc2c(C(C)C)c(O)c(O)c(C=O)c2c(O)c1-c1c(C)cc2c(C(C)C)c(O)c(O)c(C=O)c2c1O"
  assayValue: "13.3 µM (active)"

----------
Assay: qHTS Screen of the MIPE 4.0 Collection Against Ewings Sarcoma (EW8) (AID 1259255); note: nearly all actives have a fitted effect of over 35% in size;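 for viability: 100% = DMSO-treated cells and 0% = medium-only wells without cells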
Details: EW8 Ewing sarcoma viability, CellTiter-Glo, 48 h; series mostly up to 45.8 µM
Procedure: There is a large unmet medical need for treatments for Ewing sarcoma, a pediatric sarcoma. […] Using the NCATS developed oncology compound library called the Mechanism of Interrogation Plate (MIPE), four Ewing sarcoma cell lines were evaluated (TC32, TC71, RDES, EW8). Compounds, in a 12-point titration series, were incubated with cells for 48 hours and the read out was cell viability (CellTiter-Glo from Promega). […]
Results filed as inconclusive are left out. Active and inactive are the calls of the source. The call rests on the fitted dose curve; in most records, active means well fitted inhibition curve with a large enough effect; inconclusive means small, poorly fitted or top-dose-only effect; inactive means no such curve, though single readings can be large or run the other way.
Assign a class; possible classes are T for active, F for inactive

- smilesRecord: "CCC(C)(C)C(=O)O[C@H]1C[C@@H](C)C=C2C=C[C@H](C)[C@H](CC[C@@H]3C[C@@H](O)CC(=O)O3)[C@H]21"
  categoryLabel: "T"
- smilesRecord: "NNCCc1ccccc1"
  categoryLabel: "T"
- smilesRecord: "CCCC(CCC)C(=O)O"
  categoryLabel: "F"

Hello, I am checking results. What call was entered for "O=C(C=Cc1ccc(/C=C/C(=O)Nc2ccc(C3=NCCN3)cc2)cc1)Nc1ccc(C2=NCCN2)cc1" ?
F

Please do the same for "O=C(C1CC1)N1CC[C@@H](Cn2c(-c3ccc(-c4ccc5occc5c4)cc3)nc3cnccc32)C1" as well.
T

----------
This section presents compounds with their documented activity change, negative = inhibition values.
assay: qHTS Assay for Lipid Storage Modulators (AID 1519); settings: Drosophila S3 cells, BODIPY lipid droplet/cell ratio, laser cytometry; at 25.7 µM (top of the series); cells loaded with oleic acid; note: % is set by controls: 0 for no effect and ±100 for the full control effect
Inconclusive results are not listed.
State the answer as a number, implicitly in %.

Please review the following examples before continuing.
- smilesRecord: "N=c1nc(N2CCCCC2)cc(N)n1O"
  activity change, negative = inhibition (%): 0.0649
- smilesRecord: "CCCCNc1cc(C(=O)O)cc(S(N)(=O)=O)c1Oc1ccccc1"
  activity change, negative = inhibition (%): 0.496
- smilesRecord: "Nc1ccc(S(=O)(=O)Nc2ccnn2-c2ccccc2)cc1"
  activity change, negative = inhibition (%): -1.01
- smilesRecord: "CCOC(=O)C1=C[C@@]2(CC)CCCN3CCc4c(n1c1ccccc41)[C@H]32"
  activity change, negative = inhibition (%): -1.77
- smilesRecord: "NNCCc1ccccc1"
  activity change, negative = inhibition (%): 1.11

Attention now shifts to the item below.
activity change, negative = inhibition lookup needed for "CN1CCN(CCCN2c3ccccc3Sc3ccc(C(F)(F)F)cc32)CC1" , thanks.
-6.05

Just for reference, PubChem BioAssay (NCATS) is where these values come from.
